Sourced from ChEMBL document CHEMBL1132940

# TGT: GABA-A receptor; alpha-5/beta-3/gamma-2 (Homo sapiens, UniProt P18507+P28472+P31644)
# Sequence (P18507 whole entry): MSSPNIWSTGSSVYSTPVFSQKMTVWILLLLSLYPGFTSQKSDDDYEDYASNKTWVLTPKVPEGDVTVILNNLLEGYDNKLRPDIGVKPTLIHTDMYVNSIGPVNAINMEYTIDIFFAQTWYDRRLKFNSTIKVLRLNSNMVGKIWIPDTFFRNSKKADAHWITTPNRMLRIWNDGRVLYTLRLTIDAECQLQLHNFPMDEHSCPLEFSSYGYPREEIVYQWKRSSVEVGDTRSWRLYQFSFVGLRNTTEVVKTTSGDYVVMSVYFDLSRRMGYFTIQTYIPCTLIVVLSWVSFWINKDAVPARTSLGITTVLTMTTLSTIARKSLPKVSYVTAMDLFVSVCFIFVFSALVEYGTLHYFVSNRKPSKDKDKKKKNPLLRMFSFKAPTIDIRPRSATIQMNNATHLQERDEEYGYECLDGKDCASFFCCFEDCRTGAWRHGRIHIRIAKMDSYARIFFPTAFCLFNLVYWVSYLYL
# Sequence (P28472 whole entry): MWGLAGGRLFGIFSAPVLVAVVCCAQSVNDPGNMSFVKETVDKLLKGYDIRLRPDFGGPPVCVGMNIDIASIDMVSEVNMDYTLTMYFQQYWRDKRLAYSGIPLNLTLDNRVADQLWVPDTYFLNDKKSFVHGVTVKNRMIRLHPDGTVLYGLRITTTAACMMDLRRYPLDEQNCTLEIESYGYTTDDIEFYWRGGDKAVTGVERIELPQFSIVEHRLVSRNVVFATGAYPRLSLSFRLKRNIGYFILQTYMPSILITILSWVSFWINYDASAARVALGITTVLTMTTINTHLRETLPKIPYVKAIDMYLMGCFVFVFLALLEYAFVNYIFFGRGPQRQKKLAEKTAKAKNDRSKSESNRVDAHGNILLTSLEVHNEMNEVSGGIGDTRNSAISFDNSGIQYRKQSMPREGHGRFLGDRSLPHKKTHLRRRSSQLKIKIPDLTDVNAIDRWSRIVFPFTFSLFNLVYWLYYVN
# Sequence (P31644 whole entry): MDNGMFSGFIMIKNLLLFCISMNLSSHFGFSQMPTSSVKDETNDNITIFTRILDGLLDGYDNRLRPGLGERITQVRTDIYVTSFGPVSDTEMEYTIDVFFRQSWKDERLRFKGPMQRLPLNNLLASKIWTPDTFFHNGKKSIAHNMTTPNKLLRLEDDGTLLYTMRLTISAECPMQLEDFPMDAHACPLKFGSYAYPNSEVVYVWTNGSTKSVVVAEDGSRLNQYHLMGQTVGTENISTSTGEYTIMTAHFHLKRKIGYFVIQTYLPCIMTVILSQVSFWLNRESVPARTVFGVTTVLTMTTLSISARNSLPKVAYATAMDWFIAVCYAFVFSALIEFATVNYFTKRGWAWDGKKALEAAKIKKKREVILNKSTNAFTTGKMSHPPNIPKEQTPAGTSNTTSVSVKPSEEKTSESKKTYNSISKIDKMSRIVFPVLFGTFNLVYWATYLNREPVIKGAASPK
# ASSAY_INFO: Binding affinity for human recombinant gamma-aminobutyric-acid (GABA) A receptor alpha-5-beta-3-gamma-2
QUANTITY_MEASURED: pKi
Field pKi (float): negative decimal logarithm of the concentration in molar.

Consider the reported pKi for these compounds:
> print(dat)
                           smiles.structure  quantity.measured  reported.value
1           CN1C(=O)CN=C(c2ccccc2)c2ccccc21                pKi            7.02
2  CCc1c(C(=O)NN)[nH]cc2nc3cc(OC)c(OC)cc3c1-2                pKi            7.04
3               CCOc1cc2c(cn1)[nH]c1ccccc12                pKi            6.08
4      CCOC(=O)c1ncn2c1CN(C)C(=O)c1ccccc1-2                pKi            9.40
5  CCOC(=O)c1ncn2c1CN(C)C(=O)c1cc(N=[N+]=[N-])ccc1-2                pKi            9.52
6  COc1ccc2c(c1)[nH]c1c2ncc2[nH]c3ccccc3c21                pKi            6.65

Query: Sample "O=[N+]([O-])c1ccc2[nH]c3c[nH]c4c5ccccc5nc-4c3c2c1" — what was its pKi?
Reply: 5.81

Query: Can you look up the measured pKi of "CN1C(=O)CN=C(c2cccs2)c2cc(Cl)ccc21" for me?
Reply: 7.94

Query: Value lookup for pKi; key = "C#Cc1ccc2c(c1)C(c1ccccc1)=NCC(=O)N2C"
Reply: 8.17

Query: Data request, read-out pKi, for "CCOC(=O)c1[nH]cc2nc3ccc(OC)cc3c-2c1CC"
Reply: 9.00

Query: Form field: reported pKi of "c1cnc2c3[nH]cc4[nH]c5ccccc5c4c-3nc2c1"
Reply: 6.00

Query: // query pKi value for entry "COC(=O)c1cc2c3cc(NC4CCCCC4)ccc3nc-2c[nH]1"
Reply: 6.50

* * *

# ASSAY_INFO: Selectivity ratio of alpha1 beta-3 gamma2 GABA A / BzR and alpha5 beta-3 gamma2 GABA A / BzR
Documented Ratio across a set of molecules
// response body must contain only the number

Example entries and their recorded answers appear below.
> print(dat)
                           smiles.structure  reported.value
1  CN1C(=O)CN=C(c2ccccc2[N+](=O)[O-])c2cc([N+](=O)[O-])ccc21            0.06
2  CN1Cc2c(C(=O)OC(C)(C)C)ncn2-c2ccc(C#CC[Si](C)(C)C)cc2C1=O              12
3  CCOC(=O)c1ncn2c1[C@@H]1CCCN1C(=O)c1ccccc1-2             4.6
4           CN1C(=O)CN=C(c2ccccc2)c2ccccc21            0.84
5  CCOC(=O)c1ncn2c1[C@@H]1CCN1C(=O)c1cc(Br)ccc1-2              56
6  CCOC(=O)c1ncn2c1[C@@H]1CCN1C(=O)c1cc(C#C[Si](C)(C)C)ccc1-2              32

Query: Find the recorded Ratio belonging to "CCOC(=O)c1ncn2c1CN(C)C(=O)c1cc(Br)ccc1-2" and report it.
Reply: 3.7

Query: For the molecule "[N-]=[N+]=Nc1ccc2c(c1)C(c1ccccc1N=[N+]=[N-])=NCC(=O)N2" , what Ratio is on record?
Reply: 1.32

Query: Given the molecule "CCc1ccc2c(c1)C(=O)N(C)Cc1c(C(=O)OC(C)(C)C)ncn1-2" , what is its reported Ratio?
Reply: 8.6

Query: Could you tell me which Ratio is on file for "CN1Cc2c(C(=O)OC(C)(C)C)ncn2-c2ccc(I)cc2C1=O" ?
Reply: 25.5
